target: human SARM1(50-724) (Homo sapiens (Human)); test: SARM1 NAD hydrolase biological assay (HPLC readout of NAD and NAM peak areas); type: biochemical; details: 40 nM human SARM1(50-724), 0.3 mM NMN, 20 μM NAD, 60 minutes at room temperature; given as numeric bound; read-out: Average IC50
Sequence (Q6SZW1 50-724): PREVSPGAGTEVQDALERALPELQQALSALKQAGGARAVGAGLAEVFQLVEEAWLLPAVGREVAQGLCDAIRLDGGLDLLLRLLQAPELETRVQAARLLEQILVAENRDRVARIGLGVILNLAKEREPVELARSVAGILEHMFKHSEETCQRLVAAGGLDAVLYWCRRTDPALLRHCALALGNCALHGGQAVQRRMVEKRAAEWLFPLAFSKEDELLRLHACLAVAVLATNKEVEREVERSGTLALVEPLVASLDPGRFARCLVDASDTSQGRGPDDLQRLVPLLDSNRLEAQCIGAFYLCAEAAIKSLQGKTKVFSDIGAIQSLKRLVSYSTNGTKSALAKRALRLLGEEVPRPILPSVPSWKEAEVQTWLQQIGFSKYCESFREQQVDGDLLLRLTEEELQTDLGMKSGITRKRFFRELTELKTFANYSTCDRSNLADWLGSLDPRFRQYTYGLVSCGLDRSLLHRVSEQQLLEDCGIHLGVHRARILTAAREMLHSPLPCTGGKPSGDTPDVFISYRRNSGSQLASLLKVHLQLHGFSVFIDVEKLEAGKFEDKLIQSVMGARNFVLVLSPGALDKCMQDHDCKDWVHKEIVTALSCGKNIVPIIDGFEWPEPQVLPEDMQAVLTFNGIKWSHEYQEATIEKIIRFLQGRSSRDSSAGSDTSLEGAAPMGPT
pIC50: −log10 of the molar value.
Quick reference: pIC50 of the listed items.

{"columns": ["COMPOUND", "pIC50"],
 "data": [
  ["O[C@H](c1ncc(Cc2ccnc(F)c2)[nH]1)C(F)(F)F (single isomer, unassigned)", "< 4.00"],
  ["O[C@@H](c1ncc(Cc2ccnc(F)c2)[nH]1)C(F)(F)F (single isomer, unassigned) [Example 34a]", "< 4.00"],
  ["ON=C(c1nc(Cc2ccncc2)cs1)C(F)(F)F (mixture of isomers)", "< 4.00"]
]}
